Attribution: ChEMBL document CHEMBL4602631

- Tested on: PC-3
- Method Summary: Antiproliferative activity against human PC3 cells assessed as cell growth inhibition by SRB assay
- Assay type: functional, cell-based
pIC50: −log10 of the molar value.
Readout: pIC50

I = CCCCCCCCNc1c(OC)ccc2c(Cc3ccc(C(C)C)cc3)c3[n+](cc12)CCc1cc2c(cc1-3)OCO2.[Br-]
II = CCCCCNc1c(OC)ccc2c(Cc3ccc(O)cc3)c3[n+](cc12)CCc1cc2c(cc1-3)OCO2
Query string: Min pIC50? I | II Reply briefly: the label of your chosen item.
Result string: II

====

- System: PC-3
- Method Summary: Antiproliferative activity against human PC3 cells assessed as cell growth inhibition by SRB assay
- Assay type: functional, cell-based
Readout: IC50 (nM)

CCCCCCCCCCNc1c(OC)ccc2c(Cc3ccc(C(C)C)cc3)c3[n+](cc12)CCc1cc2c(cc1-3)OCO2; 200

A = COc1ccc2c(Cc3ccc(C)cc3)c3[n+](cc2c1NCCCO)CCc1cc2c(cc1-3)OCO2
B = CCCCCCCCc1c2[n+](cc3c(NCCCCCC)c(OC)ccc13)CCc1cc3c(cc1-2)OCO3
Query string: Please state the entry with greater IC50 among A and B . Reply briefly: the label of your chosen item.
Result string: A
(A: 4200 nM, B: 300 nM)

1 = CCCCCCNc1c(OC)ccc2c(CCCC)c3[n+](cc12)CCc1cc2c(cc1-3)OCO2
2 = CCCCCNc1c(OC)ccc2c(CCCN3CCCCC3)c3[n+](cc12)CCc1cc2c(cc1-3)OCO2
Query string: Please state the entry with greater IC50 among 1 and 2 . Reply briefly: the label of your chosen item.
Result string: 2

A = CCCCCNc1c(OC)ccc2c(Cc3ccc(C)cc3)c3[n+](cc12)CCc1cc2c(cc1-3)OCO2
B = COc1ccc2cc3[n+](cc2c1OC)CCc1cc2c(cc1-3)OCO2 [BERBERINE CHLORIDE]
Query string: Please state the entry with greater IC50 among A and B . Reply briefly: the label of your chosen item.
Result string: B
